- RUN DESCRIPTION: Compound cytotoxicity, XTT-based colorimetric assay
- Assay type: cell-based
- CONDITION DESCRIPTION: human; uninfected MT2 cells, day 4, XTT assay

>  <COMPOUND>
CC(C)(C)CCOc1ccc2c(=O)n(-c3ccc(Cl)c4c(NS(C)(=O)=O)nn(CC(F)F)c34)c([C@H](Cc3cc(F)cc(F)c3)NC(=O)Cn3nc(C(F)F)c4c3C(F)(F)[C@@H]3C[C@H]43)nc2n1 (atropisomer, axis not shown; (P))

>  <CC50 at 4 days>
> 500 nM

$$$$
>  <COMPOUND>
Cn1nc(NS(C)(=O)=O)c2c(Cl)ccc(-n3c([C@H](Cc4cc(F)cc(F)c4)NC(=O)Cn4nc(C(F)F)c5c4C(F)(F)[C@@H]4C[C@H]54)nc4nc(OCCN5CCCCC5)ccc4c3=O)c21 (atropisomer, axis not shown; (P))

>  <CC50 at 4 days>
> 1000 nM

$$$$
>  <COMPOUND>
Cn1nc(NS(C)(=O)=O)c2c(Cl)ccc(-n3c([C@H](Cc4cc(F)cc(F)c4)NC(=O)Cn4nc(C(F)F)c5c4C(F)(F)[C@@H]4C[C@H]54)nc4nc(OCCCS(C)(=O)=O)ccc4c3=O)c21 (atropisomer, axis not shown; (P))

>  <CC50 at 4 days>
> 500 nM

$$$$
>  <COMPOUND>
Cn1nc(NS(C)(=O)=O)c2c(Cl)ccc(-n3c([C@H](Cc4cc(F)cc(F)c4)NC(=O)Cn4nc(C(F)F)c5c4C(F)(F)[C@@H]4C[C@H]54)nc4nc(OCCC5CC5)ccc4c3=O)c21 (atropisomer, axis not shown; (P))

>  <CC50 at 4 days>
> 500 nM

$$$$

###

Readings of CC50 at 4 days for the listed compounds
- RUN DESCRIPTION: Compound cytotoxicity, XTT-based colorimetric assay
- Assay type: cell-based
- CONDITION DESCRIPTION: human; uninfected MT2 cells, day 4, XTT assay
MEASURED PARAMETER: CC50 at 4 days

>  <COMPOUND>
CCCCOCCOc1ccc2c(=O)n(-c3ccc(Cl)c4c(NS(C)(=O)=O)nn(C)c34)c([C@H](Cc3cc(F)cc(F)c3)NC(=O)Cn3nc(C(F)F)c4c3C(F)(F)[C@@H]3C[C@H]43)nc2n1 (atropisomer, axis not shown; (P)) [Example 27]

>  <MEASURED PARAMETER>
CC50 at 4 days

>  <RECORDED VALUE>
> 100 nM

$$$$
>  <COMPOUND>
Cn1nc(NS(C)(=O)=O)c2c(Cl)ccc(-n3c([C@H](Cc4cc(F)cc(F)c4)NC(=O)Cn4nc(C(F)F)c5c4C(F)(F)[C@@H]4C[C@H]54)nc4nc(OCCOC5CC5)ccc4c3=O)c21 (atropisomer, axis not shown; (P)) [Example 29]

>  <MEASURED PARAMETER>
CC50 at 4 days

>  <RECORDED VALUE>
> 100 nM

$$$$
>  <COMPOUND>
CC(C)OCCOc1ccc2c(=O)n(-c3ccc(Cl)c4c(NS(C)(=O)=O)nn(C)c34)c([C@H](Cc3cc(F)cc(F)c3)NC(=O)Cn3nc(C(F)F)c4c3C(F)(F)[C@@H]3C[C@H]43)nc2n1 (atropisomer, axis not shown; (P)) [Example 4]

>  <MEASURED PARAMETER>
CC50 at 4 days

>  <RECORDED VALUE>
> 1000 nM

$$$$
>  <COMPOUND>
Cn1nc(NS(C)(=O)=O)c2c(Cl)ccc(-n3c([C@H](Cc4cc(F)cc(F)c4)NC(=O)Cn4nc(C(F)F)c5c4C(F)(F)[C@@H]4C[C@H]54)nc4nc(OCc5ccccc5)ccc4c3=O)c21 (atropisomer, axis not shown; (P)) [Example 26]

>  <MEASURED PARAMETER>
CC50 at 4 days

>  <RECORDED VALUE>
> 100 nM

$$$$

###

- System: recombinant NL4-3 virus (nef section replaced with Renilla luciferase gene) in MT-2 cells
- RUN DESCRIPTION: HIV cell culture assay (antiviral activity, luciferase readout in infected MT-2 cells)
- Format: cell-based
- CONDITION DESCRIPTION: Renilla, NL43
pEC50: −log10 of the molar value.

>  <COMPOUND>
Cn1nc(NS(C)(=O)=O)c2c(Cl)ccc(-n3c([C@H](Cc4cc(F)cc(F)c4)NC(=O)Cn4nc(C(F)F)c5c4C(F)(F)[C@@H]4C[C@H]54)nc4nc(OCCN5CCCCC5)ccc4c3=O)c21 (atropisomer, axis not shown; (P))

>  <CENSOR SYMBOL>
=

>  <pEC50>
9.31

$$$$
>  <COMPOUND>
CC(C)OCCOc1ccc2c(=O)n(-c3ccc(Cl)c4c(NS(C)(=O)=O)nn(C)c34)c([C@H](Cc3cc(F)cc(F)c3)NC(=O)Cn3nc(C(F)F)c4c3C(F)(F)[C@@H]3C[C@H]43)nc2n1 (atropisomer, axis not shown; (P))

>  <CENSOR SYMBOL>
>

>  <pEC50>
10.30

$$$$
>  <COMPOUND>
Cn1nc(NS(C)(=O)=O)c2c(Cl)ccc(-n3c([C@H](Cc4cc(F)cc(F)c4)NC(=O)Cn4nc(C(F)F)c5c4C(F)(F)[C@@H]4C[C@H]54)nc4nc(OCCN5CCS(=O)(=O)CC5)ccc4c3=O)c21 (atropisomer, axis not shown; (P))

>  <CENSOR SYMBOL>
=

>  <pEC50>
9.59

$$$$

###

Readings of log10(EC50) for the listed compounds
- Test system: recombinant NL4-3 virus (nef section replaced with Renilla luciferase gene) in MT-2 cells
- RUN DESCRIPTION: HIV cell culture assay (antiviral activity, luciferase readout in infected MT-2 cells)
- Format: cell-based
- CONDITION DESCRIPTION: Renilla, NL43
MEASURED PARAMETER: log10(EC50) (log10 of the value in nM)

>  <COMPOUND>
Cn1nc(NS(C)(=O)=O)c2c(Cl)ccc(-n3c([C@H](Cc4cc(F)cc(F)c4)NC(=O)Cn4nc(C(F)F)c5c4C(F)(F)[C@@H]4C[C@H]54)nc4nc(OCCCC(C)(C)C)ccc4c3=O)c21 (atropisomer, axis not shown; (P))

>  <MEASUREMENT TARGET>
recombinant NL4-3 virus (nef section replaced with Renilla luciferase gene) in MT-2 cells

>  <MEASURED PARAMETER>
log10(EC50)

>  <RECORDED VALUE>
-0.96

$$$$
>  <COMPOUND>
Cn1nc(NS(C)(=O)=O)c2c(Cl)ccc(-n3c([C@H](Cc4cc(F)cc(F)c4)NC(=O)Cn4nc(C(F)F)c5c4C(F)(F)[C@@H]4C[C@H]54)nc4nc(OCCCS(C)(=O)=O)ccc4c3=O)c21 (atropisomer, axis not shown; (P))

>  <MEASUREMENT TARGET>
recombinant NL4-3 virus (nef section replaced with Renilla luciferase gene) in MT-2 cells

>  <MEASURED PARAMETER>
log10(EC50)

>  <RECORDED VALUE>
-0.74

$$$$
>  <COMPOUND>
C[C@@H](Oc1ccc2c(=O)n(-c3ccc(Cl)c4c(NS(C)(=O)=O)nn(C)c34)c([C@H](Cc3cc(F)cc(F)c3)NC(=O)Cn3nc(C(F)F)c4c3C(F)(F)[C@@H]3C[C@H]43)nc2n1)C1CCCC1 (atropisomer, axis not shown; (P))

>  <MEASUREMENT TARGET>
recombinant NL4-3 virus (nef section replaced with Renilla luciferase gene) in MT-2 cells

>  <MEASURED PARAMETER>
log10(EC50)

>  <RECORDED VALUE>
-0.66

$$$$
>  <COMPOUND>
Cn1nc(NS(C)(=O)=O)c2c(Cl)ccc(-n3c([C@H](Cc4cc(F)cc(F)c4)NC(=O)Cn4nc(C(F)F)c5c4C(F)(F)[C@@H]4C[C@H]54)nc4nc(OCCc5nccs5)ccc4c3=O)c21 (atropisomer, axis not shown; (P))

>  <MEASUREMENT TARGET>
recombinant NL4-3 virus (nef section replaced with Renilla luciferase gene) in MT-2 cells

>  <MEASURED PARAMETER>
log10(EC50)

>  <RECORDED VALUE>
-1.42

$$$$
>  <COMPOUND>
Cn1nc(NS(C)(=O)=O)c2c(Cl)ccc(-n3c([C@H](Cc4cc(F)cc(F)c4)NC(=O)Cn4nc(C(F)F)c5c4C(F)(F)[C@@H]4C[C@H]54)nc4nc(OCCOC5CC5)ccc4c3=O)c21 (atropisomer, axis not shown; (P))

>  <MEASUREMENT TARGET>
recombinant NL4-3 virus (nef section replaced with Renilla luciferase gene) in MT-2 cells

>  <MEASURED PARAMETER>
log10(EC50)

>  <RECORDED VALUE>
-1.47

$$$$
>  <COMPOUND>
Cn1nc(NS(C)(=O)=O)c2c(Cl)ccc(-n3c([C@H](Cc4cc(F)cc(F)c4)NC(=O)Cn4nc(C(F)F)c5c4C(F)(F)[C@@H]4C[C@H]54)nc4nc(OCCC5CC5)ccc4c3=O)c21 (atropisomer, axis not shown; (P))

>  <MEASUREMENT TARGET>
recombinant NL4-3 virus (nef section replaced with Renilla luciferase gene) in MT-2 cells

>  <MEASURED PARAMETER>
log10(EC50)

>  <RECORDED VALUE>
-1.29

$$$$
>  <COMPOUND>
CC(C)(C)CCOc1ccc2c(=O)n(-c3ccc(Cl)c4c(NS(C)(=O)=O)nn(CC(F)F)c34)c([C@H](Cc3cc(F)cc(F)c3)NC(=O)Cn3nc(C(F)F)c4c3C(F)(F)[C@@H]3C[C@H]43)nc2n1 (atropisomer, axis not shown; (P))

>  <MEASUREMENT TARGET>
recombinant NL4-3 virus (nef section replaced with Renilla luciferase gene) in MT-2 cells

>  <MEASURED PARAMETER>
log10(EC50)

>  <RECORDED VALUE>
-0.92

$$$$
>  <COMPOUND>
Cn1nc(NS(C)(=O)=O)c2c(Cl)ccc(-n3c([C@H](Cc4cc(F)cc(F)c4)NC(=O)Cn4nc(C(F)F)c5c4C(F)(F)[C@@H]4C[C@H]54)nc4nc(OCc5ccccn5)ccc4c3=O)c21 (atropisomer, axis not shown; (P))

>  <MEASUREMENT TARGET>
recombinant NL4-3 virus (nef section replaced with Renilla luciferase gene) in MT-2 cells

>  <MEASURED PARAMETER>
log10(EC50)

>  <RECORDED VALUE>
-1.37

$$$$
>  <COMPOUND>
C[C@H](Oc1ccc2c(=O)n(-c3ccc(Cl)c4c(NS(C)(=O)=O)nn(C)c34)c([C@H](Cc3cc(F)cc(F)c3)NC(=O)Cn3nc(C(F)F)c4c3C(F)(F)[C@@H]3C[C@H]43)nc2n1)C1CCCC1 (atropisomer, axis not shown; (P))

>  <MEASUREMENT TARGET>
recombinant NL4-3 virus (nef section replaced with Renilla luciferase gene) in MT-2 cells

>  <MEASURED PARAMETER>
log10(EC50)

>  <RECORDED VALUE>
-0.77

$$$$
>  <COMPOUND>
Cn1nc(NS(C)(=O)=O)c2c(Cl)ccc(-n3c([C@H](Cc4cc(F)cc(F)c4)NC(=O)Cn4nc(C(F)F)c5c4C(F)(F)[C@@H]4C[C@H]54)nc4nc(OCC5CCCC5)ccc4c3=O)c21 (atropisomer, axis not shown; (P))

>  <MEASUREMENT TARGET>
recombinant NL4-3 virus (nef section replaced with Renilla luciferase gene) in MT-2 cells

>  <MEASURED PARAMETER>
log10(EC50)

>  <RECORDED VALUE>
-1.22

$$$$
>  <COMPOUND>
CC(C)COCCOc1ccc2c(=O)n(-c3ccc(Cl)c4c(NS(C)(=O)=O)nn(C)c34)c([C@H](Cc3cc(F)cc(F)c3)NC(=O)Cn3nc(C(F)F)c4c3C(F)(F)[C@@H]3C[C@H]43)nc2n1 (atropisomer, axis not shown; (P))

>  <MEASUREMENT TARGET>
recombinant NL4-3 virus (nef section replaced with Renilla luciferase gene) in MT-2 cells

>  <MEASURED PARAMETER>
log10(EC50)

>  <RECORDED VALUE>
-1.27

$$$$
>  <COMPOUND>
CCCCOCCOc1ccc2c(=O)n(-c3ccc(Cl)c4c(NS(C)(=O)=O)nn(C)c34)c([C@H](Cc3cc(F)cc(F)c3)NC(=O)Cn3nc(C(F)F)c4c3C(F)(F)[C@@H]3C[C@H]43)nc2n1 (atropisomer, axis not shown; (P))

>  <MEASUREMENT TARGET>
recombinant NL4-3 virus (nef section replaced with Renilla luciferase gene) in MT-2 cells

>  <MEASURED PARAMETER>
log10(EC50)

>  <RECORDED VALUE>
-1.39

$$$$
>  <COMPOUND>
Cn1nc(NS(C)(=O)=O)c2c(Cl)ccc(-n3c([C@H](Cc4cc(F)cc(F)c4)NC(=O)Cn4nc(C(F)F)c5c4C(F)(F)[C@@H]4C[C@H]54)nc4nc(O)ccc4c3=O)c21 (atropisomer, axis not shown; (P))

>  <MEASUREMENT TARGET>
recombinant NL4-3 virus (nef section replaced with Renilla luciferase gene) in MT-2 cells

>  <MEASURED PARAMETER>
log10(EC50)

>  <RECORDED VALUE>
0.43

$$$$
>  <COMPOUND>
CCC(C)(C)CCOc1ccc2c(=O)n(-c3ccc(Cl)c4c(NS(C)(=O)=O)nn(C)c34)c([C@H](Cc3cc(F)cc(F)c3)NC(=O)Cn3nc(C(F)F)c4c3C(F)(F)[C@@H]3C[C@H]43)nc2n1 (atropisomer, axis not shown; (P))

>  <MEASUREMENT TARGET>
recombinant NL4-3 virus (nef section replaced with Renilla luciferase gene) in MT-2 cells

>  <MEASURED PARAMETER>
log10(EC50)

>  <RECORDED VALUE>
-0.77

$$$$
>  <COMPOUND>
Cn1nc(NS(C)(=O)=O)c2c(Cl)ccc(-n3c([C@H](Cc4cc(F)cc(F)c4)NC(=O)Cn4nc(C(F)F)c5c4C(F)(F)[C@@H]4C[C@H]54)nc4nc(OCCC(C)(C)C)ccc4c3=O)c21 (atropisomer, axis not shown; (P))

>  <MEASUREMENT TARGET>
recombinant NL4-3 virus (nef section replaced with Renilla luciferase gene) in MT-2 cells

>  <MEASURED PARAMETER>
log10(EC50)

>  <RECORDED VALUE>
-1.22

$$$$
